TARGET UNDER TEST: human CYP2C19 (Homo sapiens, UniProt P33261)
Construct: purchased Sumitomo Chemical Co., Ltd
Sequence (P33261 whole entry): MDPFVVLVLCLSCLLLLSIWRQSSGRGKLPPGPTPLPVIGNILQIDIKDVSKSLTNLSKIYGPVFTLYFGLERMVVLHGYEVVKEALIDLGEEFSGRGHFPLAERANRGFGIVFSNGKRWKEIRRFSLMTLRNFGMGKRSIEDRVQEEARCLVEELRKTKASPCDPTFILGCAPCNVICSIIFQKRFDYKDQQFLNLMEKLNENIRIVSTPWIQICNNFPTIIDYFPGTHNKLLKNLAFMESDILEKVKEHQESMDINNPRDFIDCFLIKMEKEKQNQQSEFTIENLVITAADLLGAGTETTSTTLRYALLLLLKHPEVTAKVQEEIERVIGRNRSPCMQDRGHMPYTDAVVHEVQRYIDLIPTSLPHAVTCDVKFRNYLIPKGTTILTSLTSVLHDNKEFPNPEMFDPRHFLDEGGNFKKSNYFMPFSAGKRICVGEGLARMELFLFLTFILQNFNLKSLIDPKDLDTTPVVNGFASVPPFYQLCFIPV
METHOD SUMMARY: Test 3 human CYP2C19 activity inhibition test (S-(+)-mephenyloin to 4'-hydroxymephenyloin)
Type: in vitro ADME
ASSAY CONTEXT: test compound 10 μM; microsomes from human CYP2C19 expression system; formed 4'-hydroxymephenyloin compared with control
The following compounds are shown together with reported CYP2C19 activity inhibition (%) values.
RESULT TYPE: CYP2C19 activity inhibition (%)

                                   compound  value_measured
0  COc1ccnc(C[S+]([O-])c2nc3ccc(OC(F)F)cc3[nH]2)c1OC (stereo not shown) [Pantoprazole, pantoprazole, reference compound]            33.1
1  COCCOc1ccnc(C[S+]([O-])c2nc3ccccc3n2NCCCO)c1C (racemic) [Example 58]            67.3
2  Cc1c(OCC(F)(F)F)ccnc1C[S+]([O-])c1nc2ccccc2n1NCCN(C)C (racemic) [Example 48]            72.3
3  COc1c(OCCOCC(F)(F)F)ccnc1C[S+]([O-])c1nc2ccccc2n1N (racemic) [Example 24]            81.9
4  Cc1c(OCCCOCC(F)(F)F)ccnc1C[S+]([O-])c1nc2ccccc2n1NCCCO (racemic) [Example 62]            95.3
5  COc1c(OCCCC(F)(F)F)ccnc1C[S+]([O-])c1nc2ccccc2n1N (racemic) [Example 26]            73.2
6  COc1c(OCCOCC(F)(F)F)ccnc1C[S+]([O-])c1nc2ccccc2n1NCCCO (racemic) [Example 61]            64.8

---

TARGET UNDER TEST: human CYP2C19 (Homo sapiens, UniProt P33261)
Construct: purchased Sumitomo Chemical Co., Ltd
METHOD SUMMARY: Test 3 human CYP2C19 activity inhibition test (S-(+)-mephenyloin to 4'-hydroxymephenyloin)
Assay type: in vitro ADME
ASSAY CONTEXT: test compound 10 μM; microsomes from human CYP2C19 expression system; formed 4'-hydroxymephenyloin compared with control
The following compounds are shown together with reported CYP2C19 activity inhibition (%) values.
RESULT TYPE: CYP2C19 activity inhibition (%)

>>> print(df.to_string())
                                   compound  result_units  value_measured
0  Cc1c(OCC(F)(F)F)ccnc1C[S+]([O-])c1nc2ccccc2[nH]1 (stereo not shown) [Lansoprazole, lansoprazole, reference compound]             %             8.7
1  COc1c(OCC(F)(F)F)ccnc1C[S+]([O-])c1nc2ccccc2n1NCCCO (racemic)             %            61.7
2  COCCCOc1ccnc(C[S+]([O-])c2nc3ccccc3[nH]2)c1C (stereo not shown) [Rabeprazole, rabeprazole, reference compound]             %            39.8
3  Cc1c(OCCOCC(F)(F)F)ccnc1C[S+]([O-])c1nc2ccccc2n1N (racemic)             %            75.6
4  COc1ccc2nc([S@@+]([O-])Cc3ncc(C)c(OC)c3C)[nH]c2c1 [Esomeprazole, esomeprazole, reference compound]             %            35.4
5  Cc1c(OCC(F)(F)F)ccnc1C[S+]([O-])c1nc2ccccc2n1NCC(C)O (mixture of isomers)             %            63.8
6  COc1ccc2nc([S+]([O-])Cc3ncc(C)c(OC)c3C)n(N)c2n1 (stereo not shown)             %              62
